Exercise: state measured growth for each of the compounds provided.
# System: SK-MEL-2 melanoma
# PROTOCOL: NCI-60 one-dose screen, 48 h (100 = growth as untreated, 0 = no growth, -100 = all killed)
# CONDITIONS_USED: 10 µM
The panel holds about 83,000 compounds, 20% with a hit somewhere; the sample as a whole holds those more often.
Numbers only, in %.

q: Quick check: growth of O=C(CS(=O)(=O)c1oc(-c2ccc(Cl)cc2)nc1S(=O)(=O)c1ccccc1)N1CCCC1 ?
a: 82.8

q: Quick check: growth of COc1cccc(/C=N/NC(=O)c2ccc3nc(-c4ccc(Cl)cc4)[nH]c3c2)c1O ?
a: -95.1

q: Quick check: growth of COc1cccc(C(N)=Nc2ccc(OCCCCCCn3cncn3)cc2)c1 ?
a: 27.3

q: Quick check: growth of O=C(N/N=C/c1ccc(-c2cccc([N+](=O)[O-])c2)o1)c1[nH]c2ccc(Br)cc2c1-c1ccccc1 ?
a: 22.8

q: Quick check: growth of CCCn1c(=O)c2[nH]c(-c3ccc(OCc4nc5ccc(F)cc5[nH]4)cc3)nc2n(CCC)c1=O ?
a: 28.6

q: Quick check: growth of N#Cc1c(NC(=O)c2ccc(C(O)(C(F)(F)F)C(F)(F)F)cc2)sc2c1CCC(=O)C2 ?
a: -27.4

q: Quick check: growth of CC1(C)CC[C@]2(C(=O)Nc3ccccc3)CC[C@]3(C)C(=CC[C@@H]4[C@@]5(C)CC[C@H](N)C(C)(C)[C@@H]5CC[C@]43C)[C@H]2C1 ?
a: 107

q: Quick check: growth of COc1ccc(/C=C/C(=O)c2ccc(S(=O)(=O)NCCNc3nc(Nc4ccc(F)cc4)nc(N(C)C)n3)cc2)cc1 ?
a: 74.7

Each of the following entries comes with a recorded value; kindly state growth for each.
1. C=C[C@H]1[C@H](O[C@@H]2OC(CO)[C@@H](O)[C@H](O)C2OC(=O)c2c(O)cc(O)cc2-c2cccc(O)c2)OC=C2C(=O)OCC[C@H]21 (stereo not given in full)
2. Brc1ccc(/C=N/Nc2ncnc3sc4c(c23)CCN(Cc2ccccc2)C4)cc1

a:
[106, 112]

---

Exercise: state measured growth for each of the compounds provided.
# Tested on: HOP-92 NSCLC
# PROTOCOL: NCI-60 one-dose screen, 48 h (100 = growth as untreated, 0 = no growth, -100 = all killed)
# CONDITIONS_USED: 10 µM
This is part of a sample that, as a whole, favours compounds with a hit. Of some 83,000 tested, about 20% had one in any assay.
Numbers only, in %.

Reference set (8 entries):
q: Quick check: growth of CN1CCc2c(sc3ncnc(N/N=C/c4cn(-c5ccccc5)nc4-c4ccc(Br)cc4)c23)C1 ?
a: 71.8

q: Quick check: growth of CCOC(=O)N/C(=C1/OCCN1C)[P+](c1ccccc1)(c1ccccc1)c1ccccc1 ?
a: 59.1

q: Quick check: growth of Cn1c(O)c(N=Nc2nc(-c3cc4ccccc4oc3=O)cs2)c2cc(Br)ccc21 ?
a: -14.7

q: Quick check: growth of CC(C)c1ccc(C(=O)Nc2sc3c(c2C(N)=O)CCC(=O)C3=O)cc1 ?
a: 127

q: Quick check: growth of COc1ccc2ncc(C#Cc3cncc(C(=O)Nc4ccc(CN5CCN(C)CC5)c(C(F)(F)F)c4)c3)n2n1 ?
a: -72

q: Quick check: growth of O=C1Nc2ccc(F)cc2/C1=C/c1cccc(OCc2ccccc2)c1 ?
a: 18.8

q: Quick check: growth of O=C1Nc2cc(Cl)ccc2/C1=C/c1cccc(OCc2ccccc2)c1 ?
a: -6.89

q: Quick check: growth of N#Cc1ccc(-c2nn(-c3ccc(C(=O)O)cc3)cc2CNc2cc(Cl)cc(C(F)(F)F)c2)cc1 ?
a: -26.6

Each of the following entries comes with a recorded value; kindly state growth for each.
1. CC1(C)CC[C@]2(C(=O)O)CC[C@]3(C)C(=CC[C@@H]4[C@@]5(C)C/C(=C/c6ccncc6)[C@H](O)C(C)(C)[C@@H]5CC[C@]43C)[C@@H]2C1
2. COc1cccc(-c2ccnc(/N=C(\N)Nc3ccc(S(=O)(=O)Nc4nc(C)cc(C)n4)cc3)n2)c1
3. Cn1cc(/C=N/Nc2cccc(Cl)n2)c2ccccc21

a:
4.52
106
42.8
